Assignment: determine reported inhibition for the given molecules.
Test: TLR3 IRF3 reporter activation blockers – cell-based, poly I:C stimulus, luciferase, 10K MLSCN set, primary screen (AID 602277)
Conditions: HEK293-TLR3 RL24 IRF3 luciferase reporter, at 10 µM, stronger effect = higher value
API: value field is a number in %; no unit string.

I'd like to know its inhibition. The molecule in question is Cc1ccc2ncnc(NCCCN3CCOCC3)c2c1
-21.1

I'd like to know its inhibition. The molecule in question is CC1=Nn2c(nnc2-c2cc(-c3ccccc3)n[nH]2)SC1
32.9

I'd like to know its inhibition. The molecule in question is Cc1nc2oc3c(NCc4ccccn4)ncnc3c2c2c1COC(C)(C)C2
12.7

I'd like to know its inhibition. The molecule in question is O=c1[nH]c(Nc2ccccc2)cc2ccccc12
7.53

I'd like to know its inhibition. The molecule in question is COc1ccc(OC)c2[nH]c(=O)c(CCNC(=O)CC(C)C)cc12
2.61

I'd like to know its inhibition. The molecule in question is Cc1ccnc(NC(=O)C2CCCN(S(=O)(=O)c3cnc[nH]3)C2)c1 (stereo not drawn)
7.28

I'd like to know its inhibition. The molecule in question is COc1cccc(C(=O)Nc2cc(NC(=O)c3ccco3)ccc2OC)c1
4.19

I'd like to know its inhibition. The molecule in question is CCC(C)NC(=O)CS(=O)(=O)Cc1nc(-c2cccc(OC)c2)oc1C (stereo not drawn)
4.33

I'd like to know its inhibition. The molecule in question is COc1ccc(C)cc1S(=O)(=O)N(C)CC(=O)Nc1ccc2c(c1)OCCO2
-10.2

I'd like to know its inhibition. The molecule in question is CCN(CC)S(=O)(=O)c1ccc2c(c1)nc(SCn1nnc3ccccc3c1=O)n2CC
11.9

I'd like to know its inhibition. The molecule in question is COc1ccc(N2C(=O)C(Cl)=C(Nc3c(C)n(C)n(-c4ccccc4)c3=O)C2=O)cc1
12.3

I'd like to know its inhibition. The molecule in question is Cn1c(=O)[nH]c(=O)c2c1nc(N1CCc3ccccc3C1)n2CCSc1nc2ccccc2s1
23

I'd like to know its inhibition. The molecule in question is CC(=O)Nc1ccc(N2CCN(Cc3ccccc3F)CC2)cc1
19

These entries and their values trace back to PubChem BioAssay.
